System: OVCAR-4 ovarian
Assay: NCI-60 one-dose screen, 48 h (100 = growth as untreated, 0 = no growth, -100 = all killed)
Conditions: 10 µM unless noted
The panel holds about 83,000 compounds, 20% with a hit somewhere; the sample as a whole holds those more often.
Label key: yes means growth under 50%; no means growth of 50% or more.

Here's what some known entries look like.
{"columns": ["compound", "classLabel"],
 "data": [
  ["COc1cc(CNC(=O)C[C@H](C)CCC=C(C)C)ccc1OCc1cn(-c2ccc(Cl)c(Cl)c2)nn1", "no"],
  ["COc1ccc(/C=C/c2nc3ccccc3c(=O)n2CC(=O)Nc2ccccc2)cc1", "yes"],
  ["COc1ccc(N=Nc2c(N)nn3c(-c4cc5cc(Br)ccc5oc4=O)ccnc23)cc1", "yes"],
  ["CCc1ccc(SC2c3cc(OC)ccc3Oc3nc(N)c(C#N)c(N)c32)cc1 (stereo not drawn)", "yes"],
  ["Cc1ccc(C2CC(c3ccc(S(=O)(=O)NCCNc4nc(N(C)C)nc(N5CCOCC5)n4)cc3)=Nc3c(N)nc(N)nc3N2)cc1 (stereo not drawn)", "no"]
]}

Shifting focus to the compound that follows.
Criterion: growth strictly below 50%. Is it met by Clc1ccc(-c2nc3ccc(-c4nnc(SCc5ccccc5)o4)cc3[nH]2)cc1 ?
yes
